Each entry below lists one item and its recorded melting point value.

Exercise: Consider the molecule CSc1cccc(NC(=O)Nc2ccc3sc(C)nc3c2)c1 and give its measured melting point.
Solution: 225 to 227 °C

Exercise: Next up: O=C(NCc1ccc(Br)cc1)Nc1cccc2cc[nH]c12
Solution: 205 to 208 °C

---

Each entry below carries its reported melting point.

Below are worked cases with known answers.
[
  {
    "compound": "O=C(Nc1ccccc1-c1ccccc1)Nc1cccc2[nH]ccc12 [Example 86]",
    "melting point": "104 to 106 °C"
  },
  {
    "compound": "Cc1cccc(NC(=O)Nc2ccc3sc(C)nc3c2)c1 [Example 20]",
    "melting point": "200 to 202 °C"
  },
  {
    "compound": "O=C(Nc1cccc(F)c1)Nc1cccc2[nH]ccc12 [Example 90]",
    "melting point": "225 to 226 °C"
  },
  {
    "compound": "O=C(Nc1ccc(Cl)c([N+](=O)[O-])c1)Nc1cccc2[nH]ccc12 [Example 96]",
    "melting point": "233 to 235 °C"
  },
  {
    "compound": "Cc1nc2cc(NC(=O)Nc3ccc(Oc4ccccc4)cc3)ccc2[nH]1 [Example 49]",
    "melting point": "243 to 245 °C"
  }
]

Exercise: Consider the compound COc1ccc(NC(=O)Nc2ccc3sc(C)nc3c2)cc1 [Example 28] and give its measured melting point.
Solution: 215 to 217 °C

Exercise: Try the compound Cc1nc2cc(NC(=O)Nc3ccc(F)cc3F)ccc2s1 [Example 30]
Solution: 243 to 244 °C

Exercise: Same lookup for O=C(Nc1cc([N+](=O)[O-])ccc1F)Nc1cccc2[nH]ccc12 [Example 97] , please.
Solution: 261 to 263 °C

Exercise: Item: COc1cccc(NC(=O)Nc2cccc3[nH]ccc23)c1 [Example 36]
Solution: 219 to 221 °C

Exercise: // same read-out, input: O=C(Nc1ccc(Oc2ccccc2)cc1)Nc1cccc2[nH]ccc12 [Example 37]
Solution: 212 to 214 °C

Exercise: // next record Cc1cccc(NC(=O)Nc2cccc3[nH]ccc23)c1 [Example 33]
Solution: 237 to 239 °C

Exercise: How about this compound: O=C(Nc1ccc(Cl)c(C(F)(F)F)c1)Nc1ccc2ncsc2c1 [Example 1]
Solution: 225 to 228 °C
